Target: Delta-type opioid receptor (Mus musculus)
Sequence (P32300 whole entry): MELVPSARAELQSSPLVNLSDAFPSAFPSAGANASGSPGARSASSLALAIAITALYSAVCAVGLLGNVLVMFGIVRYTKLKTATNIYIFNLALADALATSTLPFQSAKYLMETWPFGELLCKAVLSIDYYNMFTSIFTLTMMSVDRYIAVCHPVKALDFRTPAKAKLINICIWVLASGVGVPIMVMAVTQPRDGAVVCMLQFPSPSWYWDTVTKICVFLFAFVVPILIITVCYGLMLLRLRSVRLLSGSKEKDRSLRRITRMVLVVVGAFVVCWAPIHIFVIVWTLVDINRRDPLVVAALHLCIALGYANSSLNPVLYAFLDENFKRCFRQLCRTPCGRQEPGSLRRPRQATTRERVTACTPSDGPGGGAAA
Test: Agonist activity at delta opioid receptor in albino mouse vas deferens assessed as inhibition of electrically-stimulated muscle contraction
Endpoint Label: pIC50
Give bare numbers, as −log10 of the molar value.

Input: Return reported pIC50 for target or system Delta-type opioid receptor (Mus musculus), item NCCCC[C@H](NC(=O)[C@H](Cc1ccccc1)NC(=O)[C@@H](CCCN=C(N)N)NC(=O)[C@@H](N)Cc1ccc(O)cc1)C(N)=O .
Output: 6.11
